- Tested on: ZR-75-1
- protocol_text: viability inhibition at highest dose (% inhibition); higher = more growth inhibition
- condition_description: 4-OH-tamoxifen in medium 0 µM; 72 h
experimental_endpoint: viability inhibition at highest dose

These solved cases illustrate the format of a correct answer.
{"molecule": "O=P1(NCCCl)OCCCN1CCCl (centres undefined) [Ifosfamide] (drug 10000 nM)", "viability inhibition at highest dose": -8.49}
{"molecule": "CC[C@@H]1C(=O)N(C)c2cnc(Nc3ccc(C(=O)NC4CCN(C)CC4)cc3OC)nc2N1C1CCCC1 [BI 2536] (drug 1000 nM)", "viability inhibition at highest dose": 12.7}

INPUT: Given the entry CC(=O)OC[C@H]1O[C@@H]([S-])[C@H](OC(C)=O)[C@@H](OC(C)=O)[C@@H]1OC(C)=O.CCP(CC)CC.[Au+] [Auranofin] (drug 2500 nM) , what viability inhibition at highest dose was observed with ZR-75-1?
OUTPUT: 15.9

INPUT: Note, next up: COc1ccccc1S(=O)(=O)Nc1ccc2c(c1)CN(C)C(=O)N2 [PFI-1] (drug 10000 nM)
OUTPUT: 13.1

====

- Test system: BT-474
- protocol_text: relative IC50 (midpoint of fitted logistic curve, plateau may be below 50% inhibition; CellTiter-Glo viability); higher = less potent
- condition_description: 4-OH-tamoxifen in medium 1 µM; 72 h
# relative IC50 annotations

These solved cases illustrate the format of a correct answer.
{"compound": "O=P1(N(CCCl)CCCl)NCCCO1 (centres undefined) [Clafen (Cyclophosphamide, Endoxan)]", "target": "BT-474", "relative IC50": "> 40000 nM"}
{"compound": "CCCCC/C=C/C=C1/C(=O)C=C[C@@H]1C/C=C\\CCCC(=O)O [15D-PGJ2]", "target": "BT-474", "relative IC50": "> 800 nM"}
{"compound": "C[C@]12C=CC(=O)C=C1CC[C@@H]1[C@@H]2C(=O)C[C@@]2(C)[C@H]1CC[C@]2(O)C(=O)CO", "target": "BT-474", "relative IC50": "> 10000 nM"}

For the next question, use this compound.
INPUT: Which relative IC50 value belongs to `CCS(=O)(=O)c1cccc(-c2cc(C(=O)NC3CCN(C)CC3)c(C)c3[nH]c4ncc(C)cc4c23)c1` ?
OUTPUT: 90.5 nM

====

# drug sensitivity score annotations
- Test system: ZR-75-1 Tam2
- protocol_text: drug sensitivity score (DSS) (DSS (dimensionless)); higher = more sensitive; extreme values may be limits of the assay
- condition_description: 4-OH-tamoxifen in medium 1 µM; 72 h
Where a name gives a salt, the structure may show the parent alone.
# respond with the number and nothing more

{"molecule": "CCN(CC)CCOc1ccc(C(=C(Cl)c2ccccc2)c2ccccc2)cc1 [Clomifene citrate]", "drug sensitivity score": 2.03}
{"molecule": "CC1=C(/C=C/C(C)=C/C=C/C(C)=C/C(=O)O)C(C)(C)CCC1", "drug sensitivity score": 0}
{"molecule": "Oc1ccc2c(c1)CC[C@H](c1ccccc1)[C@@H]2c1ccc(OCCN2CCCC2)cc1", "drug sensitivity score": 0}
{"molecule": "COCC[n+]1c2c(n(Cc3cnccn3)c1C)C(=O)c1ccccc1C2=O", "drug sensitivity score": 16.2}
{"molecule": "C[C@@]1(C(=O)Nc2ccc(F)nc2)CCCN1c1nc(Nc2cc(C3CC3)n[nH]2)c2cccn2n1", "drug sensitivity score": 0}

For the next question, use this molecule.
INPUT: Which drug sensitivity score value belongs to `CN[C@@H]1C[C@H]2O[C@@](C)([C@@H]1OC)n1c3ccccc3c3c4c(c5c6ccccc6n2c5c31)C(=O)N[C@H]4O` ?
OUTPUT: 9.41
